target: UniProtKB Q9NR97; assay: TLR8 inhibition reporter assay (HEK-Blue SEAP); conditions: read-out: TLR8 IC50; HEK-Blue cells overexpressing human TLR8, R848 15.9 μM stimulation, SEAP reporter
pIC50: −log10 of the molar value.
Assay metric: pIC50

Example cases with answers are listed next.
COc1cc(-c2[nH]c3cnc(C4CCC(N(C)C5COC5)CC4)c(F)c3c2C(C)C)cn2ncnc12 (centres unmarked) [Example 106] :: 8.30
CNC(=O)CN1CC2(C1)CN(c1ncc3[nH]c(-c4cn5ncnc5c(C)c4C)c(C(C)C)c3c1F)C2 :: 8.18

1: Cc1c(-c2[nH]c3cnc(C4CCC(NC5CCOC5)CC4)cc3c2C(C)C)cn2ncnc2c1C (centres unmarked) [Example 349]
2: CCN(C)C1CCC(c2cc3c(C(C)C)c(-c4cc(OC)c5ncnn5c4)[nH]c3cn2)C1 (centres unmarked) [Example 272]
3: COc1cc(-c2[nH]c3cnc(C4CCC(NCC5(C)COC5)CC4)c(C)c3c2C(C)C)cn2ncnc12 (centres unmarked) [Example 269]
4: COc1cc(-c2[nH]c3cnc(N4CC5(CN(C(=O)CN6CCOCC6)C5)C4)c(F)c3c2C(C)C)cn2ncnc12
Query :: Put the entries in order of pIC50, starting with the largest number. Response field: labels, in requested order.
Result :: 1, 3, 2, 4
(1: 8.44, 3: 8.19, 2: 7.66, 4: 7.28)

* * *

target: human TLR9 (Homo sapiens (Human)); assay: TLR9 inhibition reporter assay (HEK-Blue SEAP); conditions: read-out: TLR9 IC50; HEK-Blue cells overexpressing human TLR9, ODN2006 5 nM stimulation, SEAP reporter
Sequence (Q9NR96 26-1032): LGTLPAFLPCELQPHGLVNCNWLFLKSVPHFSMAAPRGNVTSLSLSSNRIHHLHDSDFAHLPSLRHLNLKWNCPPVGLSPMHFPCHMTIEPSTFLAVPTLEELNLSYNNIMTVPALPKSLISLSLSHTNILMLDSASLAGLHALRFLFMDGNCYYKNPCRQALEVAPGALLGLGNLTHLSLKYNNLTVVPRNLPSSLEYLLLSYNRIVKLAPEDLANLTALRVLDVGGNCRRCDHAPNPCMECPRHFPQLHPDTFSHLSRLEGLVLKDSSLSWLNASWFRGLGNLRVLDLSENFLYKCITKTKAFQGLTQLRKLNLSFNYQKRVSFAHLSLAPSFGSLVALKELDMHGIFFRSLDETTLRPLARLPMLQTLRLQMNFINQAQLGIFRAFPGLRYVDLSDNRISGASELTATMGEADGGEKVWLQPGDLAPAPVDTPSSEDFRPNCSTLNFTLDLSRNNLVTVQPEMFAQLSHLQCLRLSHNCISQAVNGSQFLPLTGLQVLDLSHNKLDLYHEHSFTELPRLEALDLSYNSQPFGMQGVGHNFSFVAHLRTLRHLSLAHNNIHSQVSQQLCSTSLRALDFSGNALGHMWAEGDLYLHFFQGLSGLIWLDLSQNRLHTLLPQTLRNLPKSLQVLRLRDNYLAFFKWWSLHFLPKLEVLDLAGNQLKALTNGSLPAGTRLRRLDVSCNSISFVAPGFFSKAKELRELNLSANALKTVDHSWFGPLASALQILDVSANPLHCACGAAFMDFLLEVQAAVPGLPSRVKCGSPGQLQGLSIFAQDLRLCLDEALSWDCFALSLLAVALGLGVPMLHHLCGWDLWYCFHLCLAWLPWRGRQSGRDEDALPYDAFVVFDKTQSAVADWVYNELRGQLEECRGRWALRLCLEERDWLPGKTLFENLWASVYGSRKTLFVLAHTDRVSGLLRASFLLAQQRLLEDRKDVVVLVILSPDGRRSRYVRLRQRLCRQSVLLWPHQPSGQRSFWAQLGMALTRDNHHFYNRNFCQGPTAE
Assay metric: IC50 (µM)

CCN1CC2(C1)CN(c1ncc3[nH]c(-c4cn5ncnc5c(C)c4C)c(C(C)C)c3c1F)C2 :: 12.4
Cc1cc(-c2[nH]c3cnc(N4CCC(NC5(C)COC5)CC4)c(F)c3c2C(C)C)cn2ncnc12 :: 12.7
COc1cc(-c2[nH]c3cnc(C4CCC(N(C)C)CC4)cc3c2C(C)C)cn2ncnc12 (stereo not drawn) :: 11.5

* * *

molecular target: human TLR7 (Homo sapiens (Human)); assay: TLR7 inhibition reporter assay (HEK-Blue SEAP); details: HEK-Blue cells overexpressing human TLR7, gardiquimod 7.5 μM stimulation
Sequence (Q9NYK1 27-1049): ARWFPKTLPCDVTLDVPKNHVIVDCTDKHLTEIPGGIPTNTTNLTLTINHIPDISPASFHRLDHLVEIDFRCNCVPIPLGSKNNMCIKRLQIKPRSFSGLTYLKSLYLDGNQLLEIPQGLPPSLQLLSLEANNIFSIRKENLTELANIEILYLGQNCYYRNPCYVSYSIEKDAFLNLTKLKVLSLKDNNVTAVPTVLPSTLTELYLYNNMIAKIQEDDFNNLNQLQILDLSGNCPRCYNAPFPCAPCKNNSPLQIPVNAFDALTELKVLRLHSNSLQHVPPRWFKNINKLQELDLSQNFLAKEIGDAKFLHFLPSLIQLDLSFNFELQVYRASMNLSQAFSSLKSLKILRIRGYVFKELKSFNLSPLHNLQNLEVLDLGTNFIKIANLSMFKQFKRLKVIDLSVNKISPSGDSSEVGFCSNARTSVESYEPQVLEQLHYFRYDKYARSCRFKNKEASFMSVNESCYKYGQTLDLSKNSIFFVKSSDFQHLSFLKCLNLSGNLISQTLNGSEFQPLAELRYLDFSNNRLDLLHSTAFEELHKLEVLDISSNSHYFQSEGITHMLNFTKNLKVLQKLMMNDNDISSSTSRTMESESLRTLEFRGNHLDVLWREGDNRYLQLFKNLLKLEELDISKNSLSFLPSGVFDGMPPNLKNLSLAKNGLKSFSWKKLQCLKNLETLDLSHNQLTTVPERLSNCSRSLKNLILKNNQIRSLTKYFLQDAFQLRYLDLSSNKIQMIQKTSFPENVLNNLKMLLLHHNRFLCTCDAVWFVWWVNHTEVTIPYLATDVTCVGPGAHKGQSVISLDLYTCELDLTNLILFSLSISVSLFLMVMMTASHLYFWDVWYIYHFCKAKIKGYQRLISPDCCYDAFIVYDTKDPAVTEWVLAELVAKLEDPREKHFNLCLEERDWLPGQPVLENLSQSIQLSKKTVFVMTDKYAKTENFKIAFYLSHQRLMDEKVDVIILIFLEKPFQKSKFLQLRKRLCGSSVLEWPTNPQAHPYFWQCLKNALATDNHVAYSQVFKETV
pIC50: −log10 of the molar value.
Assay metric: pIC50

Example cases with answers are listed next.
Cc1c(-c2[nH]c3cnc(N4CCC(NC(C)C)CC4)c(C)c3c2C(C)C)cn2ncnc2c1C [Example 113] :: 9.14
CCN1CCN(c2ncc3[nH]c(-c4cn5ncnc5c(C)c4C)c(C(C)C)c3c2F)CC1 [Example 433] :: 8.52

I: Cc1c(-c2[nH]c3cnc(N4CCN(CC#N)C[C@H]4C)c(F)c3c2C(C)C)cn2ncnc2c1C [Example 467]
II: COc1cc(-c2[nH]c3cnc(N4CCC(NC5COC5)CC4)c(C)c3c2C(C)C)cn2ncnc12 [Example 137]
III: COc1cc(-c2[nH]c3cnc(C4CCC(NCC(C)(C)F)CC4)c(C)c3c2C(C)C)cn2ncnc12 (stereo not shown) [Example 244]
IV: Cc1c(-c2[nH]c3cnc(C4CCC(NC5CCOC5)CC4)cc3c2C(C)C)cn2ncnc2c1C (stereo not shown) [Example 349]
V: Cc1c(-c2[nH]c3cnc(N4CCN(CC(=O)N5CCOCC5)CC4)c(F)c3c2C(C)C)cn2ncnc2c1C [Example 423]
Query :: Put the entries in order of pIC50, starting with the largest number. Response field: labels, in requested order.
Result :: II, IV, I, V, III

A: Cc1c(-c2[nH]c3cnc(C4CCC(NC56CC(C5)C6)CC4)c(F)c3c2C(C)C)cn2ncnc2c1C (stereo not shown) [Example 239]
B: COc1cc(-c2[nH]c3cnc(C4CCC(NC5COC5)CC4)c(C)c3c2C(C)C)cn2ncnc12 (stereo not shown) [Example 242]
Query :: Which of the two gives a bigger number for pIC50: A or B ? Answer format: the label of the selected item.
Result :: A
(A: 8.59, B: 7.96)

* * *

biological target: human TLR9 (Homo sapiens (Human)); experiment: TLR9 inhibition reporter assay (HEK-Blue SEAP); conditions: read-out: TLR9 IC50; HEK-Blue cells overexpressing human TLR9, ODN2006 5 nM stimulation, SEAP reporter
pIC50: −log10 of the molar value.
Assay metric: pIC50

Example cases with answers are listed next.
COc1cc(-c2[nH]c3cnc(N4CCC(NCC(N)=O)CC4)cc3c2C(C)C)cn2ncnc12 :: 6.15
Cc1c(-c2[nH]c3cnc(N4CC5(CNC5)C4)c(F)c3c2C(C)C)cn2ncnc2c1C :: 5.05
Cc1cc(-c2[nH]c3cnc(N4CCN(CC(=O)N(C)C)CC4)cc3c2C(C)C)cn2ncnc12 :: 4.75

I: COc1cc(-c2[nH]c3cnc(N4CCC(N5CCC5)CC4)c(F)c3c2C(C)C)cn2ncnc12
II: COc1cc(-c2[nH]c3cnc(C4CCC(NC5COC5)CC4)cc3c2C(C)C)cn2ncnc12 (centres unmarked) [Example 330]
III: Cc1c(-c2[nH]c3cnc(C4CCC(NCC(C)(C)O)CC4)c(C)c3c2C(C)C)cn2ncnc2c1C (centres unmarked) [Example 92]
IV: Cc1c(-c2[nH]c3cnc(C4CCC(NC(C)C)CC4)c(F)c3c2C(C)C)cn2ncnc2c1C (centres unmarked) [Example 85]
Query :: Rank the items in ascending order with respect to pIC50. Response field: labels, in requested order.
Result :: I, IV, III, II

P: COc1cc(-c2[nH]c3cnc(C4CCC(N(C)C(C)C)C4)cc3c2C(C)C)cn2ncnc12 (centres unmarked) [Example 63]
Q: CCN(C)C1CCC(c2cc3c(C(C)C)c(-c4cc(OC)c5ncnn5c4)[nH]c3cn2)C1 (centres unmarked) [Example 248]
Query :: Lowest pIC50? choose P or Q Answer format: the label of the selected item.
Result :: P
(P: 5.52, Q: 6.40)

* * *

biological target: human TLR9 (Homo sapiens (Human)); test: TLR9 inhibition reporter assay (HEK-Blue SEAP); details: read-out: TLR9 IC50; HEK-Blue cells overexpressing human TLR9, ODN2006 5 nM stimulation, SEAP reporter;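 further: SEAP driven by IFN-β minimal promoter carrying five NF-κB and AP-1 sites, 22 h at 37 °C, compounds 0.05 nM–50 µM, inhibition scaled between agonist-plus-DMSO and reference-inhibitor wells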
pIC50: −log10 of the molar value.
Assay metric: pIC50

COc1cc(-c2[nH]c3cnc(N4CCC(N(C)C(C)C)CC4)c(C)c3c2C(C)C)cn2ncnc12 :: 5.95
CNCC(=O)N1CCN(c2ncc3[nH]c(-c4cc(OC)c5ncnn5c4)c(C(C)C)c3c2Cl)CC1 :: 6.31

I: COc1cc(-c2[nH]c3cnc(C4CCC(N(CC#N)C5COC5)CC4)c(F)c3c2C(C)C)cn2ncnc12 (centres unmarked) [Example 114]
II: Cc1cc(-c2[nH]c3cnc(C4CCC(NC5COC5)CC4)c(F)c3c2C(C)C)cn2ncnc12 (centres unmarked) [Example 80]
Query :: Lowest pIC50? choose I or II Answer format: the label of the selected item.
Result :: I
(I: 4.76, II: 5.74)

* * *

biological target: human TLR8 (Homo sapiens (Human)); assay: TLR8 inhibition reporter assay (HEK-Blue SEAP); settings: read-out: TLR8 IC50; HEK-Blue cells overexpressing human TLR8, R848 15.9 μM stimulation, SEAP reporter;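 further: SEAP driven by IFN-β minimal promoter with five NF-κB and AP-1 sites, compounds tested 0.05 nM to 50 µM, 22 h incubation, inhibition relative to agonist plus DMSO wells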
Sequence (Q9NR97 27-1041): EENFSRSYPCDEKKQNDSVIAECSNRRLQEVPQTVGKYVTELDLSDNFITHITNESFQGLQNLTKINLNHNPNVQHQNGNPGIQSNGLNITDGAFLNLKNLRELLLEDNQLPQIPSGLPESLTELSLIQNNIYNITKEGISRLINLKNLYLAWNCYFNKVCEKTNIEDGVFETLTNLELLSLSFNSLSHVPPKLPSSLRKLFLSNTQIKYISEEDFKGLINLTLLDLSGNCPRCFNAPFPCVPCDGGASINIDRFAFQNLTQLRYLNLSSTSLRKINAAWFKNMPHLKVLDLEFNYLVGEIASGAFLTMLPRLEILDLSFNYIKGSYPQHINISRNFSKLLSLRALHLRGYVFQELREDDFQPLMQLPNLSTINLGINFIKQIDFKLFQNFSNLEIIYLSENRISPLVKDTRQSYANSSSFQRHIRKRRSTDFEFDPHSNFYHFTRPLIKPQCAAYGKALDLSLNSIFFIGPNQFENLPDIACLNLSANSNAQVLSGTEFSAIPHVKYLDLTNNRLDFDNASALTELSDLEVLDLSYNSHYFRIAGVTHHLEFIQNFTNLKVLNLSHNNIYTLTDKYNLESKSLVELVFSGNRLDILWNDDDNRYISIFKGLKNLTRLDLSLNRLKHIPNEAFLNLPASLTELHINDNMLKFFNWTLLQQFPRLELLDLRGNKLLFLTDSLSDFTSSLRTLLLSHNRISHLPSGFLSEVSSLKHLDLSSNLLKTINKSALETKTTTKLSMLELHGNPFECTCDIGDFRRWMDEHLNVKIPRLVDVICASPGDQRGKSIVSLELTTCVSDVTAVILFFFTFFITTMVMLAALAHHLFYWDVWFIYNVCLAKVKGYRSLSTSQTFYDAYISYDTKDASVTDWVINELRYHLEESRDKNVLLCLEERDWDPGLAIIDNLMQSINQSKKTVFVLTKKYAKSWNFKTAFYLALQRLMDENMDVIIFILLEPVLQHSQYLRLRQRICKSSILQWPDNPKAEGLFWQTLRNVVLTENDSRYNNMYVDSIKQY
Assay metric: IC50 (nM)

Example cases with answers are listed next.
COc1cc(-c2[nH]c3cnc(N4CCC(NC5COC5)CC4)cc3c2C(C)C)cn2ncnc12 [Example 320] :: 2
COc1cc(-c2[nH]c3cnc(C4CCN(C5COC5)CC4)c(C)c3c2C(C)C)cn2ncnc12 [Example 16] :: 26
COc1cc(-c2[nH]c3cnc(C4CCN(CC(N)=O)CC4)c(C)c3c2C(C)C)cn2ncnc12 [Example 11] :: 8.3
COc1cc(-c2[nH]c3cnc(N4CCN(CC5(C)COC5)CC4)c(F)c3c2C(C)C)cn2ncnc12 [Example 385] :: 1.4
COCCN1CCC(c2ncc3[nH]c(-c4cc(OC)c5ncnn5c4)c(C(C)C)c3c2F)CC1 [Example 21] :: 2.7

P: CNC(=O)CN(C)C1CCC(c2cc3c(C(C)C)c(-c4cc(OC)c5ncnn5c4)[nH]c3cn2)CC1 (stereo not drawn) [Example 338]
Q: Cc1c(-c2[nH]c3cnc(N4CCN(C(C)C)CC4)c(F)c3c2C(C)C)cn2ncnc2c1C [Example 412]
Query :: Lowest IC50? choose P or Q Answer format: the label of the selected item.
Result :: Q
(Q: 0.29 nM, P: 30 nM)

a: COc1cc(-c2[nH]c3cnc(C4CCC(NCC5(C)COC5)CC4)c(C)c3c2C(C)C)cn2ncnc12 (stereo not drawn) [Example 270]
b: CNC(=O)CN1CCN(c2ncc3[nH]c(-c4cc(OC)c5ncnn5c4)c(C(C)C)c3c2Cl)CC1 [Example 293]
Query :: Which of the two gives a bigger number for IC50: a or b ? Answer format: the label of the selected item.
Result :: b
